target: EZH2 (Homo sapiens (Human), UniProt Q15910); assay: PRC2 enzyme assay on peptide substrates; type: biochemical; conditions: PRC2 enzyme assays on peptide substrates; 4 nM enzyme, 30 min preincubation at 25° C.; read-out: EZH2 IC50
Sequence (Q15910 other isoform, or with tags, fused parts or gaps): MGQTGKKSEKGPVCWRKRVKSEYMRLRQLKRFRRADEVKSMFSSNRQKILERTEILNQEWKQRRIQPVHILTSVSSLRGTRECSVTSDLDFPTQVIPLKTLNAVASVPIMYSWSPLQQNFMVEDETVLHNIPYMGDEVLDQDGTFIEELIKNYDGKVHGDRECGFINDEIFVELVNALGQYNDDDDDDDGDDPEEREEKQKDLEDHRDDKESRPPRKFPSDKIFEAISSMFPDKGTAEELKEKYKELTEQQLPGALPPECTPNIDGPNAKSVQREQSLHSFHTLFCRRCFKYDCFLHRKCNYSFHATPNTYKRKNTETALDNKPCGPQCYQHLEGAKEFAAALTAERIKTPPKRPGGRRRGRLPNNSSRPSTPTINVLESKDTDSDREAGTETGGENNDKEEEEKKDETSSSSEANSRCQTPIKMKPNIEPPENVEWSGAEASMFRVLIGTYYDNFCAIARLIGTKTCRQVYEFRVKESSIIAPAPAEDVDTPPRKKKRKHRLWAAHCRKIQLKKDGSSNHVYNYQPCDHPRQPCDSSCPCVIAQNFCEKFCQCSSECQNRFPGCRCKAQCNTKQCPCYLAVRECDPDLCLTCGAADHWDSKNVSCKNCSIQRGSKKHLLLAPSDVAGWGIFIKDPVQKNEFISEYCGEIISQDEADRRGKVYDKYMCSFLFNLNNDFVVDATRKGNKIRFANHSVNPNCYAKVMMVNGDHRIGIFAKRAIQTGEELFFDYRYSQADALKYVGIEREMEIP
Sequence (O75530 whole entry partner): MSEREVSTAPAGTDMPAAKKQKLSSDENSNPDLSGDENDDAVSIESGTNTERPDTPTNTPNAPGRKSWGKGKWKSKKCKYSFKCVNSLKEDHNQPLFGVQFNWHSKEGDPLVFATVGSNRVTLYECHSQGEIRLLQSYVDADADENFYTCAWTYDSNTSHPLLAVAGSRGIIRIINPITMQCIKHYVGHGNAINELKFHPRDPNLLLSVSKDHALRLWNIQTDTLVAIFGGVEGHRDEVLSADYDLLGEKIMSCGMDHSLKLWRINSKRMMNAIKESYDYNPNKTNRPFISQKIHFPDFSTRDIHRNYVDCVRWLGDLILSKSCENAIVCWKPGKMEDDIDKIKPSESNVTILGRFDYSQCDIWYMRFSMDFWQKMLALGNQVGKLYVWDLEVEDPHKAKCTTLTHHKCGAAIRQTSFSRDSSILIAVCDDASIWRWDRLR
Sequence (Q15022 whole entry partner): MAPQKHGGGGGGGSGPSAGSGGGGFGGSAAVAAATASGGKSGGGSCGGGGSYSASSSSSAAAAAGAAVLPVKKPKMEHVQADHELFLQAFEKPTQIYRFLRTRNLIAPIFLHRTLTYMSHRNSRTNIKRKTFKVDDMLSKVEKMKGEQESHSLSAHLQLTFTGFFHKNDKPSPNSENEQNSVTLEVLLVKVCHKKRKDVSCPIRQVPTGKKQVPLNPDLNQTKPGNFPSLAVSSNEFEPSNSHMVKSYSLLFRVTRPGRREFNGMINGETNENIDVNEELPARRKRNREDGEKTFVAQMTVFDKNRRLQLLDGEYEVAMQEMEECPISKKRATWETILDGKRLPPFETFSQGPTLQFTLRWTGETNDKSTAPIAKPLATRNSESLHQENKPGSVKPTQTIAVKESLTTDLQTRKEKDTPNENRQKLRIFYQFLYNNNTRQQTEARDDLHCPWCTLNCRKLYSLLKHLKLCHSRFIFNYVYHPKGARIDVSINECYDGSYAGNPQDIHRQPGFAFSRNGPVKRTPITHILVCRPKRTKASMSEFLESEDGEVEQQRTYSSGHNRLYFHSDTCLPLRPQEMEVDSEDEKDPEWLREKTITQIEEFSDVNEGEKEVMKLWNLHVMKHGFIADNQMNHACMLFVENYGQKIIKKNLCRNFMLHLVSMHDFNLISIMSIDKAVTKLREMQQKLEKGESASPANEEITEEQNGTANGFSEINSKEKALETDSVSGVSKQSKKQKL
Sequence (Q09028 whole entry partner): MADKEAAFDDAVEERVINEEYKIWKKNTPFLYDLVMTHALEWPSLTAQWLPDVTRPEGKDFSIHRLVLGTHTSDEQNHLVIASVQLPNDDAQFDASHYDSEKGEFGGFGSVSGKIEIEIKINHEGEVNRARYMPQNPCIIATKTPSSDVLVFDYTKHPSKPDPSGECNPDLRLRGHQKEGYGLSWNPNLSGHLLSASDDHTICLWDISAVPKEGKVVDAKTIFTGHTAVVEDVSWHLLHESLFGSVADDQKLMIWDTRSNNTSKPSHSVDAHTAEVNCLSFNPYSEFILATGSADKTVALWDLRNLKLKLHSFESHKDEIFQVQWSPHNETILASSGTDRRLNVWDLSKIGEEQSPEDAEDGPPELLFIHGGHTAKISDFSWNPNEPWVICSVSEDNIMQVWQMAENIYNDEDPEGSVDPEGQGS
pIC50: −log10 of the molar value.
Reported Metric: pIC50

>  <Molecule Smiles>
Cc1cc(C)c(CNC(=O)c2cc(C3CCN(C(=O)[C@H](C)N)CC3)nc3c2cnn3C(C)C)c(=O)[nH]1

>  <pIC50>
5.52 to 6.00

$$$$

Ask: I have this molecule here, Cc1cc(C)c(CNC(=O)c2cccc3c2cnn3C(C)C)c(=O)[nH]1 , and I need its recorded pIC50.
Reply: 5.52 to 6.00

Ask: Look up pIC50 for this molecule: Cc1cc(C)c(CNC(=O)c2cc(CN3CCN(C)CC3)cc3c2cnn3C2CCCC2)c(=O)[nH]1
Reply: > 6.52

Ask: Consider the molecule Cc1cc[nH]c(=O)c1CNC(=O)c1cc(-c2cccc(CN(C)CCN(C)C)c2)nc2c1cnn2C(C)C and give its measured pIC50.
Reply: 5.00 to 5.52

* * *

target: EZH2 (Homo sapiens (Human), UniProt Q15910); experiment: PRC2 enzyme assay on peptide substrates; format: biochemical; details: PRC2 enzyme assays on peptide substrates; 4 nM enzyme, 30 min preincubation at 25° C.; read-out: EZH2 IC50
Reported Metric: IC50

>  <Molecule Smiles>
Cc1cc(C)c(CNC(=O)c2cc(C3=CC(C)(C)NC(C)(C)C3)nc3c2cnn3CCC#N)c(=O)[nH]1

>  <IC50>
3 to 10 µM

$$$$
>  <Molecule Smiles>
CCC(=O)N1CCC(n2ncc3c(C(=O)NCc4c(C)cc(C)[nH]c4=O)cc(Br)cc32)CC1

>  <IC50>
0.3 to 1 µM

$$$$
>  <Molecule Smiles>
CCOC(=O)Cn1ncc2c(C(=O)NCc3c(C)cc(C)[nH]c3=O)cc(C3=CC(C)(C)NC(C)(C)C3)nc21

>  <IC50>
10 to 50 µM

$$$$
>  <Molecule Smiles>
Cc1cc(C)c(CNC(=O)c2cc(-c3ccc(CN(C)C)cc3)cc3c2cnn3C2CCCC2)c(=O)[nH]1

>  <IC50>
< 0.3 µM

$$$$
>  <Molecule Smiles>
Cc1cc(C)c(CNC(=O)c2cc(C3CCNCC3)nc3c2cnn3C(C)C)c(=O)[nH]1

>  <IC50>
0.3 to 1 µM

$$$$
>  <Molecule Smiles>
Cc1cc(C)c(CNC(=O)c2cc(C3=CCN(CCC(F)(F)F)CC3)nc3c2cnn3C(C)C)c(=O)[nH]1

>  <IC50>
0.3 to 1 µM

$$$$

Shift focus to the following entry.
Ask: If you can, please state the reported IC50 value of Cc1cc(CN(C)C)c(CNC(=O)c2cc(-c3ccc(CN4CCOCC4)cc3)nc3c2cnn3C(C)C)c(=O)[nH]1 .
Reply: 0.3 to 1 µM

* * *

target: EZH2 (Homo sapiens (Human)); experiment: PRC2 enzyme assay on peptide substrates; assay type: biochemical; conditions: PRC2 enzyme assays on peptide substrates; 4 nM enzyme, 30 min preincubation at 25° C.; read-out: EZH2 IC50
pIC50: −log10 of the molar value.
Reported Metric: pIC50

Study these solved cases before continuing.
>  <Compound>
CCc1cc(C(=O)NCc2c(C)cc(C)[nH]c2=O)c2cnn(C3CCCC3)c2c1

>  <pIC50>
6.00 to 6.52

$$$$
>  <Compound>
CCc1ccc(CNC(=O)c2cc(-c3ccc4c(c3)OCCO4)nc3c2cnn3C(C)C)c(=O)[nH]1

>  <pIC50>
4.30 to 5.00

$$$$
>  <Compound>
Cc1cc(C)c(CNC(=O)c2cc(-c3ccc(CN4CCOCC4)cc3)nc3c2c(Br)nn3C(C)C)c(=O)[nH]1

>  <pIC50>
> 6.52

$$$$
>  <Compound>
Cc1cc(C)c(CNC(=O)c2cc(C3=CCN(C(=O)C4CCCN(C)C4)CC3)nc3c2cnn3C(C)C)c(=O)[nH]1 (centres unmarked)

>  <pIC50>
> 6.52

$$$$
>  <Compound>
Cc1cc(C)c(CNC(=O)c2cc(C3=CC(C)(C)NC(C)(C)C3)nc3c2cnn3Cc2ccccc2)c(=O)[nH]1

>  <pIC50>
4.30 to 5.00

$$$$

Ask: Quick check: pIC50 of CC(=O)Nc1cc(C(=O)NCc2c(C)cc(C)[nH]c2=O)c2cnn(C(C)C)c2n1 ?
Reply: 5.52 to 6.00

Ask: Fill blank: measured pIC50 of the compound Cc1cc(CN2CCN(C)CC2)c(CNC(=O)c2cccc3c2cnn3C2CCCC2)c(=O)[nH]1 is ____.
Reply: 5.52 to 6.00

Ask: For Cc1cc(C)c(CNC(=O)c2cc(Br)cc3c2cnn3C2CCN(C(=O)C3CCC3)CC2)c(=O)[nH]1 , what is its reported pIC50?
Reply: 6.00 to 6.52

Ask: So what's the measured pIC50 for this one? Cc1cc(C)c(CNC(=O)c2cc(COCCCN(C)C)cc3c2cnn3C2CCCC2)c(=O)[nH]1
Reply: 5.00 to 5.52

Ask: Look up pIC50: Cc1cc(C)c(CNC(=O)c2cc(-c3cccc(CN)c3)nc3c2cnn3C(C)C)c(=O)[nH]1
Reply: 6.00 to 6.52

Ask: # input compound: Cc1cc(C)c(CNC(=O)c2cc(COCCO)cc3c2cnn3C2CCCC2)c(=O)[nH]1 ; wanted: its pIC50
Reply: 6.00 to 6.52

Ask: What pIC50 value was documented for this compound, Cc1cc(C)c(CNC(=O)c2cc(N3CCC(N4CCN(S(C)(=O)=O)CC4)CC3)nc3c2cnn3C(C)C)c(=O)[nH]1 ?
Reply: 5.52 to 6.00

Ask: Recorded pIC50 for Cc1cc(C)c(CNC(=O)c2cc(C3CCN(CCCN(C)C)CC3)cc3c2cnn3C2CCCC2)c(=O)[nH]1 , please?
Reply: > 6.52

* * *

target: UniProt Q15910; assay: PRC2 enzyme assay on peptide substrates; assay type: biochemical; settings: PRC2 enzyme assays on peptide substrates; 4 nM enzyme, 30 min preincubation at 25° C.; read-out: EZH2 IC50
Reported Metric: IC50

Consider the following illustrative entries.
>  <Molecule Smiles>
CCOc1ccc(S(=O)(=O)N2CCN(C)CC2)cc1-c1cc(C(=O)NCc2c(C)cc(C)[nH]c2=O)c2cnn(C3CCCC3)c2c1

>  <IC50>
< 0.3 µM

$$$$
>  <Molecule Smiles>
Cc1cc(C)c(CNC(=O)c2ccnc3c2ccn3C(C)C)c(=O)[nH]1

>  <IC50>
3 to 10 µM

$$$$

Ask: Which IC50 is reported with UniProt Q15910 for this entry: Cc1cc(C)c(CNC(=O)c2cc(C3=CCN(CCN)CC3)cc3c2cnn3C2CCCC2)c(=O)[nH]1 ?
Reply: < 0.3 µM

Ask: Hi! What's the reported IC50 for Cc1cc(C)c(CNC(=O)c2cc(C3=CCN(C(=O)CO)CC3)cc3c2cnn3C2CCCC2)c(=O)[nH]1 on UniProt Q15910?
Reply: 0.3 to 1 µM

Ask: Recorded IC50 for CNCCCOc1cccc(-c2cc(C(=O)NCc3c(C)cc(C)[nH]c3=O)c3cnn(C4CCCC4)c3c2)c1 with UniProt Q15910, please?
Reply: < 0.3 µM

Ask: // lookup IC50 | system=UniProt Q15910 | key= Cc1cc(C)c(CNC(=O)c2cc(-c3cnn(CCN4CCOCC4)c3)cc3c2cnn3C2CCN(C(=O)C(C)(C)C)CC2)c(=O)[nH]1
Reply: < 0.3 µM

Ask: For UniProt Q15910, provide IC50 of Cc1cc(C)c(CNC(=O)c2cc(-c3ccc(CN4CCOCC4)nc3)cc3c2cnn3C2CCCC2)c(=O)[nH]1 please.
Reply: < 0.3 µM

Ask: For UniProt Q15910, provide IC50 of Cc1cc(C)c(CNC(=O)c2cc(N(C)CCCN(C)C)nc3c2cnn3C(C)C)c(=O)[nH]1 please.
Reply: 1 to 3 µM

Ask: Hi! What's the reported IC50 for CNCCN(C)Cc1cccc(-c2cc(C(=O)NCc3c(C)cc(C)[nH]c3=O)c3c(n2)N(C(C)C)NC3)c1 on UniProt Q15910?
Reply: 1 to 3 µM

Ask: # value lookup — system UniProt Q15910, readout IC50, item Cc1cc(C)c(CNC(=O)c2cc(C3=CCN(C(=O)C4CN(C)C4)CC3)cc3c2cnn3C2CCCC2)c(=O)[nH]1
Reply: < 0.3 µM

Ask: // map Cc1cc[nH]c(=O)c1CNC(=O)c1cc(-c2cccc(CN3CCN(C)CC3)c2)nc2c1cnn2C(C)C to recorded IC50 (system: UniProt Q15910)
Reply: 10 to 50 µM

Ask: Test system UniProt Q15910; read-out IC50; what value for Cc1cc(C)c(CNC(=O)c2cc(C3=CCN(C(=O)C4CCNCC4)CC3)nc3c2cnn3C(C)C)c(=O)[nH]1 ?
Reply: < 0.3 µM

Ask: Give IC50 (UniProt Q15910) of the following molecule: Cc1cc(C)c(CNC(=O)c2cc(-c3cnc(N)nc3)nc3c2cnn3C(C)C)c(=O)[nH]1
Reply: 0.3 to 1 µM

Ask: Missing value: IC50, UniProt Q15910, entry COCc1cc(C)[nH]c(=O)c1CNC(=O)c1cc(C2=CC(C)(C)NC(C)(C)C2)nc2c1cnn2C(C)C . Fill in?
Reply: 0.3 to 1 µM
